Attribution: patent US10131652B2

# System: barnyardgrass (Echinochloa crus-galli)
# ASSAY EXPLANATION: Test B pre-/postemergence plant response
# Format: in vivo
# SETUP CONDITIONS: Preemergence, 125 g ai/ha; 0 to 100 scale (0 no effect, 100 complete control)
As shown below, each of these molecules has a reported Barnyardgrass plant response rating value.
READOUT TYPE: Barnyardgrass plant response rating

>>> recorded_measurement("Clc1cnc(Oc2ccccc2-c2ccsc2)nc1")
10
>>> recorded_measurement("FC(F)(F)c1csc(-c2ccccc2Oc2ncc(I)cn2)n1")
0
>>> recorded_measurement("FC(F)(F)C(F)(F)c1cc(-c2ccccc2Oc2ncc(Cl)cn2)no1")
0
>>> recorded_measurement("N#Cc1cccc(Oc2ncc(Br)cn2)c1-c1ccc(Cl)cn1")
0
>>> recorded_measurement("FCc1cc(-c2ccccc2Oc2ncc(Cl)cn2)on1")
50
>>> recorded_measurement("COc1ccnc(-c2ccccc2Oc2ncc(Cl)cn2)c1")
0
>>> recorded_measurement("Fc1cnc(Oc2ccccc2-c2cc(C(F)F)no2)nc1")
80
>>> recorded_measurement("FC(F)(F)Cn1cnc(-c2ccccc2Oc2ncc(Cl)cn2)c1")
0
>>> recorded_measurement("CC(F)(F)c1cc(-c2ccccc2Oc2ncc(Cl)cn2)no1")
100
>>> recorded_measurement("Clc1cnc(Oc2ccccc2-c2cc(Cl)cnn2)nc1")
0
>>> recorded_measurement("Cc1c(-c2ccccc2Oc2ncc(Cl)cn2)noc1C(F)(F)F")
0
>>> recorded_measurement("FC(F)Oc1cccc(Oc2ncc(Cl)cn2)c1-c1cc(C(F)F)no1")
60

---

# System: giant foxtail (Setaria faberii)
# ASSAY EXPLANATION: Test B pre-/postemergence plant response
# Assay type: in vivo
# SETUP CONDITIONS: 31 g ai/ha, Postemergence; 0 to 100 scale, 0 no effect, 100 complete control
Binarize Plant response rating, Foxtail, Giant at 20; below is y, at or above is n.

>>> category_label("FC(F)c1cc(-c2c(Cl)cccc2Oc2ncc(Cl)cn2)on1")
"n"
>>> category_label("COc1cccc(Oc2ncc(Cl)cn2)c1-c1cc(C(F)F)no1")
"n"
>>> category_label("FC(F)(F)C(F)(F)c1cc(-c2ccccc2Oc2ncc(Cl)cn2)no1")
"y"
>>> category_label("Clc1cnc(Oc2ccccc2-c2cc(C(Cl)Cl)on2)nc1")
"y"
>>> category_label("FC(F)c1cc(-c2c(Cl)cccc2Oc2ncc(Br)cn2)on1")
"n"
>>> category_label("Cc1nc(-c2ccccc2Oc2ncc(Cl)cn2)co1")
"y"
>>> category_label("Fc1ccc(-c2cc(C(F)(F)F)no2)c(Oc2ncc(Cl)cn2)c1")
"y"
>>> category_label("Cn1cnc(-c2ccccc2Oc2ncc(Cl)cn2)n1")
"y"
>>> category_label("N#Cc1cccc(Oc2ncc(Cl)cn2)c1-c1ccsc1")
"y"
>>> category_label("Fc1cccc(Oc2ncc(Cl)cn2)c1-c1cc(C2CC2)on1")
"n"
>>> category_label("CC(C)n1nc(C(F)(F)F)cc1-c1c(C#N)cccc1Oc1ncc(Cl)cn1")
"y"
>>> category_label("Clc1cnc(Oc2ccccc2-c2nnc(C3CC3)o2)nc1")
"y"

---

# Tested on: wild mustard (Sinapis arvensis)
# ASSAY EXPLANATION: Test E pre-/postemergence plant response
# Format: in vivo
# SETUP CONDITIONS: Brassica, post-emergence; 31 g ai/ha, Postemergence; scale 0 to 100; read-out: Plant response rating, Mustard, Wild
READOUT TYPE: pest or weed control at 31 g/ha (%)

>>> recorded_measurement("Fc1cccc(Oc2ncc(Cl)cn2)c1-c1cc(C(F)(F)F)on1")
95
>>> recorded_measurement("FC(F)c1cc(-c2ccccc2Oc2ncc(Cl)cn2)on1")
75
>>> recorded_measurement("FC(F)c1cc(-c2ccccc2Oc2ncc(Br)cn2)no1")
100
>>> recorded_measurement("FC(F)(F)c1cc(-c2ccccc2Oc2ncc(Cl)cn2)no1")
95
